Assay: Cmax in rat at 1 mg/kg, po
Format: ADME, organism-based
Design: dose 1 mg/kg, route oral
Settings: in vivo
QUANTITY_KIND: Cmax

Looking up `C[C@H]1[C@H](F)C[C@@H](C(=O)NCc2cc(-c3cnc(C(F)(F)F)nc3)ncc2F)N1S(=O)(=O)c1ccc(F)cc1` , I found its Cmax recorded as 30 nM

----------
Assay: Clearance in rat liver microsomes
Assay type: ADME, microsome
QUANTITY_KIND: CLhep predicted (mL/min/kg)
Answers are plain numbers, in mL/min/kg.

Worked set:
C[C@H]1[C@H](F)C[C@@H](C(=O)NCc2cc(-c3cnc(C(F)(F)F)nc3)c(C#N)cn2)N1S(=O)(=O)c1ccc(F)cc1 | 25
C[C@H]1[C@H](F)C[C@@H](C(=O)NCc2cc(-c3cnc(C(F)(F)F)cn3)ncn2)N1S(=O)(=O)c1ccc(F)cc1 | 18
O=C(NCc1cc(-c2ccc(C(F)(F)F)nc2)ncn1)[C@@H]1C[C@H](F)CN1S(=O)(=O)c1ccc(F)cc1 | 40
C[C@H]1[C@H](F)C[C@@H](C(=O)NCc2cc(-c3cnc(C(F)(F)F)nc3)ncn2)N1S(=O)(=O)c1ccc(F)cc1 | 18
C[C@H]1[C@H](F)C[C@@H](C(=O)NCc2cc(-c3cnc(C(F)(F)F)nc3)ccn2)N1S(=O)(=O)c1ccc(F)cc1 | 18

Hey, can you go through the list below and give me CLhep predicted for every item?
1. O=C(NCc1cc(-c2ccc(C(F)(F)F)nc2)ncn1)[C@@H]1CCCN1S(=O)(=O)c1ccc(F)cc1
2. C[C@H]1[C@H](F)C[C@@H](C(=O)NCc2cc(-c3cnc(C(F)(F)F)nc3)ncc2Cl)N1S(=O)(=O)c1ccc(F)cc1

Result:
43
20

----------
Experiment: Clearance in human liver microsomes
Assay type: ADME, microsome
QUANTITY_KIND: CLhep predicted (mL/min/kg)
Give bare numbers, in mL/min/kg.

C[C@H]1[C@H](F)C[C@@H](C(=O)NCc2cc(-c3cnc(C(F)(F)F)nc3)c(C#N)cn2)N1S(=O)(=O)c1ccc(F)cc1 | 17
O=C(NCc1cc(-c2ccc(C(F)(F)F)nc2)ncn1)[C@@H]1CCN1S(=O)(=O)c1ccc(F)cc1 | 10
C[C@H]1[C@H](F)C[C@@H](C(=O)NCc2c(F)cnc(-c3cnc(C(F)(F)F)nc3)c2F)N1S(=O)(=O)c1ccc(F)cc1 | 14

Hey, can you go through the list below and give me CLhep predicted for every item?
1. C[C@H]1[C@H](F)C[C@@H](C(=O)NCc2cc(-c3cnc(C(F)(F)F)nc3)ncc2C#N)N1S(=O)(=O)c1ccc(F)cc1
2. O=C(NCc1cc(-c2ccc(C(F)(F)F)nc2)ncn1)[C@@H]1C[C@@H](F)CN1S(=O)(=O)c1ccc(F)cc1

Result:
9
5

Hey, can you go through the list below and give me CLhep predicted for every item?
1. C[C@H]1[C@H](F)C[C@@H](C(=O)NCc2cc(-c3cnc(C(F)(F)F)nc3)ncc2F)N1S(=O)(=O)c1ccc(F)cc1
2. C[C@H]1[C@H](F)C[C@@H](C(=O)NCc2cc(-c3cnc(C(F)(F)F)nc3)c(Cl)cn2)N1S(=O)(=O)c1ccc(F)cc1

Result:
10
15
